The origin of these recorded values is patent US8841264B2.

tested on: nitric oxide production in RAW267.7 macrophages; test: Inhibition of nitric oxide production in LPS-activated macrophages (Griess reaction); assay type: cell-based, murine; conditions: Mus musculus, Macrophage; single substance; RAW267.7, LPS 1 μg/ml, 24 hours; read-out: IC50 Nitric Oxide
QUANTITY: IC50 (µM)

COMPOUND: CCC/C=C1\OC(=O)C2=C1CCC=C2 [Ligustilide, ligustilide]
TARGET OR SYSTEM: nitric oxide production in RAW267.7 macrophages
QUANTITY: IC50
RESULT UNIT: µM
REPORTED VALUE: 15

(a) C=CCc1ccc(O)c(-c2ccc(O)c(CC=C)c2)c1
(b) OCCc1ccc(O)c(O)c1 [OH-Tyrosol, 2-(3,4-dihydroxyphenyl)-ethanol]
Could you kindly indicate whether a or b has the higher IC50 value? Let me know the label of the one you choose.
b
